Test system: MCF-7 breast cancer cells
Assay: MTT cytotoxicity assay
Assay type: cell-based
Conditions: Homo sapiens, MCF7; MCF-7 cells, MTT, 48 h, mean ± SD of three independent values
pIC50: −log10 of the molar value.
quantityKind: pIC50

[[record]]
linenotation = "CCOC(=O)c1[nH]c2ccccc2c1/C=N/Nc1ccc([N+](=O)[O-])cc1[N+](=O)[O-]"
quantitykind = "pIC50"
resultvalue = 5.15

